- Tested on: CEM cells HIV-1 protection, formazan growth assay
- Experiment notes: NCI AIDS Antiviral Assay
- Conditions used: measured here: growth of uninfected CEM cells
pIC50: −log10 of the molar value.
Please go through the items and note down their pIC50.

Prompt: Note pIC50 for the compound shown: O=S(=O)(O)c1cccc(N=Nc2cc(S(=O)(=O)O)c3cccnc3c2O)c1
Completion: < 3.26

Prompt: # return recorded pIC50 for entry COC(=O)C(NC(=O)C12CCC(C)(C(=O)O1)C2(C)C)c1cc(C(C)(C)C)c(O)c(C(C)(C)C)c1 (stereo unspecified)
Completion: < 4.70

Prompt: Return pIC50 for the following compound: CCSC1=N/C(=C\c2ccccc2O)C(Nc2ccc(C)cc2)=N1
Completion: < 4.00

Prompt: State, in one line, measured pIC50 of CCCC1(CCCNC(=O)c2ccccc2)OCc2ccccc2CO1
Completion: < 3.29

Prompt: Return the recorded pIC50 value; entry: O=C(CCc1nnc2s/c(=C\c3ccccc3[N+](=O)[O-])c(=O)n12)Nc1cc(Cl)c(Cl)cc1Cl
Completion: < 5.70

Prompt: Look up and state reported pIC50 for CNC(=O)c1ncn(C2OC(CO)C(O)C2O)n1 (stereo unspecified)
Completion: < 3.70

Prompt: Return value of pIC50 for input c1ccc(-n2nc3ccc4nonc4c3n2)cc1 , no commentary.
Completion: < 3.70

Prompt: Identify measured pIC50 corresponding to CC1(C)COC(c2ccccc2Br)=N1
Completion: < 3.70

Prompt: Recall and state the measured pIC50 for CN(C)N(CCO)CCO .
Completion: < 3.70

Prompt: In one line, give reported pIC50 of the entry COc1ccc2c(c1)C(=O)Cc1ccccc1CC2 .
Completion: < 4.40

Prompt: Please give measured pIC50 of the following entry: CC1=C(C)C2(C#N)C(=O)N3C(=NC(c4ccccc4)NC3c3ccccc3)C2(C#N)C(c2ccccc2)N1 (stereo unspecified)
Completion: < 4.00

Prompt: For the compound [Co].[NH-]CC[NH-].[NH-]CC[NH-].[NH-]CC[NH-] , report pIC50.
Completion: < 3.70

Prompt: Identify pIC50 associated with the compound COCC12CC(CC1=O)C1C2ON2c3ccccc3C(=O)C12c1ccccc1 (stereo unspecified)
Completion: < 4.30

Prompt: For the compound COc1cccc2c1OC(=O)C(S(=O)(=O)c1ccccc1)C2 (stereo unspecified) , give its reported pIC50.
Completion: < 3.25

Prompt: Please look at this compound and report its pIC50: CC1CN1P(=O)(OCCC#N)N1CC1C (stereo unspecified)
Completion: < 3.70

Prompt: Give me measured pIC50, please, for this compound: CC1(C)Oc2ccc(NC(=O)CCC(N)C(=O)O)cc2O1 (stereo unspecified)
Completion: < 3.70

Prompt: Quick one: give measured pIC50 for CCOP(=O)(OCC)/C(C#N)=C\c1ccc(OC(C)=O)cc1
Completion: < 3.25

Prompt: Retrieve pIC50 measured for CC1=C(C)C2(C#N)CC(=O)N=C2O1 (stereo unspecified) and print it.
Completion: < 3.70

Prompt: Note pIC50 for the compound shown: CN(NC(=O)/C(=C/c1c(O)ccc2ccccc12)NC(=O)c1ccccc1)c1cn[nH]c(=O)c1Cl
Completion: < 3.70

Prompt: Indicate its recorded pIC50; the compound in question is CCCNC(=O)Cn1c(-c2ccccc2)cc2ccccc21
Completion: < 3.70

Prompt: Tell me pIC50 reported for COC(=O)C1=C(C)N(NC(=O)Nc2ccccc2)C2(N)N(NC(=O)Nc3ccccc3)C(C)=C(C(=O)OC)C12C(=O)OC (stereo unspecified)
Completion: < 4.50

Reference for the values: PubChem BioAssay AID179
